All values here come from patent US20060270670A1.

system: SK-Br-3; assay: Cell proliferation assay (SRB), SK-Br-3; type: cell-based; conditions: Homo sapiens, SK-BR-3, 48 h, read-out: IC50 cell proliferation SK-Br-3
assay.endpoint: pIC50
# pIC50: negative log10 of molar concentration; output just the value

Entry under test: CCOc1cc2ncc(C#N)c(Nc3ccc(OCc4ccccn4)c(Cl)c3)c2cc1NC(=O)/C=C/CN(C)C [Dimethylamino, reference compound] . Its pIC50 was 7.44

====

test system: 3T3; experiment: Cell proliferation assay (SRB), 3T3; type: cell-based; settings: Mus musculus, NIH3T3, 48 h, read-out: IC50 cell proliferation 3T3
assay.endpoint: IC50 (nM)
Just the number please, in nM, no unit attached.

Entry under test: CCOc1cc2ncc(C#N)c(Nc3ccc(OCc4ccccn4)c(Cl)c3)c2cc1NC(=O)/C=C/CN(C)C [Dimethylamino, reference compound] . Its IC50 was 2190

====

system: SW620 colon carcinoma cells; experiment: Cell proliferation assay (SRB), SW620; format: cell-based; conditions: Homo sapiens, SW-620, 48 h, read-out: IC50 cell proliferation SW620
assay.endpoint: IC50 (nM)
Just the number please, in nM, no unit attached.

Measured IC50 for this entry CCOc1cc2ncc(C#N)c(Nc3ccc(OCc4ccccn4)c(Cl)c3)c2cc1NC(=O)/C=C/CN(C)C [Dimethylamino, reference compound] on SW620 colon carcinoma cells: 1220

====

target: EGFR (Homo sapiens, UniProt P00533)
Sequence (P00533 25-1210): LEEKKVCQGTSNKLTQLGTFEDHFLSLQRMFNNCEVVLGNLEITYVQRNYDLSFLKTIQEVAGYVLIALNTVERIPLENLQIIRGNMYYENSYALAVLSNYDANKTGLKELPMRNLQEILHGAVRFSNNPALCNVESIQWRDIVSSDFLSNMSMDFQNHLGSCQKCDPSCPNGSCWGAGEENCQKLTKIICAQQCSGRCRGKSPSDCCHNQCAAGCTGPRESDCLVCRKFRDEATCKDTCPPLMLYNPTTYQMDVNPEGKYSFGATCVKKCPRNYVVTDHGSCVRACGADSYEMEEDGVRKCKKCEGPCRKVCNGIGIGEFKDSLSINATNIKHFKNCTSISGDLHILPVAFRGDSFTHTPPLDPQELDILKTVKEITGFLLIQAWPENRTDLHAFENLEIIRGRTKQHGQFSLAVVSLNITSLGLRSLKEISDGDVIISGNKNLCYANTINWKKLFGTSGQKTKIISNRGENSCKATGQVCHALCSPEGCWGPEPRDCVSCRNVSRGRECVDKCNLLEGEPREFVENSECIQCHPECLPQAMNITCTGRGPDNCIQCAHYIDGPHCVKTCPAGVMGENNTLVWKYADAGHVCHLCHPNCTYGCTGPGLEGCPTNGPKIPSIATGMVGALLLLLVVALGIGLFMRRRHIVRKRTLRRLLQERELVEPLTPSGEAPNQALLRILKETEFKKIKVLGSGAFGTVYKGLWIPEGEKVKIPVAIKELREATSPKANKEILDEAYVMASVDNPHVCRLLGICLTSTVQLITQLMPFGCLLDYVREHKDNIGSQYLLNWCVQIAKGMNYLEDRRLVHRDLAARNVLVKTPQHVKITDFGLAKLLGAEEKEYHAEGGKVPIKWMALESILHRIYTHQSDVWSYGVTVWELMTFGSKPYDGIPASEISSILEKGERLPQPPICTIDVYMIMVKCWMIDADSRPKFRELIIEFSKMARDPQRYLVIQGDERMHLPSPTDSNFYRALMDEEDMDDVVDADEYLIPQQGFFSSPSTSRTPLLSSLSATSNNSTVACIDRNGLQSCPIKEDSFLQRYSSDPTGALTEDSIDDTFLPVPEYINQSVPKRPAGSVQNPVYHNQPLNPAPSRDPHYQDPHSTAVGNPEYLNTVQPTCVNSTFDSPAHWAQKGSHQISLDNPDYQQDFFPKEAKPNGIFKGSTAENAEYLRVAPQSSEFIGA
assay.endpoint: pIC50
# pIC50: negative log10 of molar concentration; output just the value

Entry under test: CCOc1cc2ncc(C#N)c(Nc3ccc(OCc4ccccn4)c(Cl)c3)c2cc1NC(=O)/C=C/CNC [Example 6] . Its pIC50 was 8.15

====

system: BT474; test: Cell proliferation assay (SRB), BT474; assay type: cell-based; details: Homo sapiens, BT-474, 144 h; BT474, 6 days, SRB; mean and SE (n); read-out: IC50 cell proliferation BT474
assay.endpoint: pIC50
# pIC50: negative log10 of molar concentration; output just the value

Entry under test: CCOc1cc2ncc(C#N)c(Nc3ccc(OCc4ccccn4)c(Cl)c3)c2cc1NC(=O)/C=C/CNC . Its pIC50 was 8.52

====

test system: BT474; assay: Cell proliferation assay (SRB), BT474; assay type: cell-based; details: Homo sapiens, BT-474, 144 h, read-out: IC50 cell proliferation BT474
assay.endpoint: IC50 (nM)
Just the number please, in nM, no unit attached.

Measured IC50 for this entry CCOc1cc2ncc(C#N)c(Nc3ccc(OCc4ccccn4)c(Cl)c3)c2cc1NC(=O)/C=C/CN(C)C [Dimethylamino, reference compound] on BT474: 2

====

target: cytoplasmic kinase domain of HER-2 (Homo sapiens, UniProt P04626); construct: Purified recombinant C-terminal fragment of HER-2 was incubated with ATP; test: HER-2 autophosphorylation assay; assay type: biochemical; conditions: purified recombinant C-terminal fragment of HER-2 with ATP; phosphotyrosine antibodies; mean and SE (n)
Sequence (P04626 676-1255 limits assumed): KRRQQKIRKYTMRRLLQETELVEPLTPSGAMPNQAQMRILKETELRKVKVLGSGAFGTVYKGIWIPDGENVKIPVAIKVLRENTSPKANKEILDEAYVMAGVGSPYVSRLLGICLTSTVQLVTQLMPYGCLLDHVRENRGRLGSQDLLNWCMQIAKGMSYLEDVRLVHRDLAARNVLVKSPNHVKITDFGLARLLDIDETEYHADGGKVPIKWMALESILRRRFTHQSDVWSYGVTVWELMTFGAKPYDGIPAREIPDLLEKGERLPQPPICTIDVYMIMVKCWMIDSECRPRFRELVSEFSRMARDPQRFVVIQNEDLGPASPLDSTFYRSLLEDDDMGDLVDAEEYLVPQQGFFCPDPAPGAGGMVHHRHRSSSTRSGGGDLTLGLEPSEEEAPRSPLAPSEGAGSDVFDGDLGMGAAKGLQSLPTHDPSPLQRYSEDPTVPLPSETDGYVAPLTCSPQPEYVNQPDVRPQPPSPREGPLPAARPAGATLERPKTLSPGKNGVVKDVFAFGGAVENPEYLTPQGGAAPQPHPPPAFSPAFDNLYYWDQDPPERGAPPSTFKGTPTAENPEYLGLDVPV
assay.endpoint: pIC50
# pIC50: negative log10 of molar concentration; output just the value

Entry under test: CCOc1cc2ncc(C#N)c(Nc3ccc(OCc4ccccn4)c(Cl)c3)c2cc1NC(=O)/C=C/CNC . Its pIC50 was 8.47
